For each record, write down the corresponding GE-HTS (composite Z-score).
System: OXPHOS gene expression
Assay type: cell-based, mouse
EXPERIMENTAL SETUP: Conc 20 μM; normalized score vs mock-treated (DMSO) wells
Answers are plain numbers.

# annotated cases, reported GE-HTS (composite Z-score) shown
CC(=O)Oc1ccccc1C(=O)Oc1ccccc1C(=O)O [diplosalsalate]	−1.001
CC(=O)O[C@@H]1CC2C(C)(C)C(=O)C3OC3[C@]2(C)C2CC[C@@]3(C)[C@H](c4ccoc4)OC(=O)C4OC43[C@@]21C (stereo partly drawn)	−1.146
O=C(Oc1cc(OC(=O)c2ccccc2)c2c(c1)O[C@H](c1ccc(OC(=O)c3ccccc3)c(OC(=O)c3ccccc3)c1)[C@@H](OC(=O)c1ccccc1)C2)c1ccccc1 [catechin pentabenzoate]	−0.898
CC(C)(C#N)O[C@@H]1O[C@H](CO)[C@@H](O)[C@H](O)[C@H]1O	−1.024
CC1(C)C2C[C@@H](O)[C@]3(C)C(CC[C@@]4(C)[C@H](c5ccoc5)OC(=O)C5OC543)[C@@]2(C)C(=O)C[C@H]1O (stereo partly drawn)	−0.525
CC(C)CCC[C@@H](C)C1CC[C@H]2[C@@H]3CCC4CC(=O)CC[C@]4(C)[C@H]3CC[C@]12C (stereo partly drawn)	0.165

For each of the compounds below, state GE-HTS (composite Z-score).
1. CC(=O)O[C@@H]1CC2C(C)(CC[C@H](O)C2(C)C)C2CC[C@]3(C)C(=CC(=O)O[C@H]3c3ccoc3)C21C (stereo partly drawn) [3beta-hydroxydeoxodihydrodeoxygedunin]
2. COc1cc(OC)c2c(c1)OC(c1ccccc1)CC2=O (stereo not drawn)
3. O=C(O)Cc1cc(I)c(Oc2cc(I)c(O)c(I)c2)c(I)c1
4. C=CC(C)(O)CCC=C(C)C (single isomer, unassigned; (+)) [(+)-linalool]
5. C[C@@H]1O[C@@H](O[C@H]2[C@H](O[C@H]3CC[C@@]4(C)[C@@H](CC[C@]5(C)[C@@H]4CC=C4[C@@H]6CC(C)(C)CC[C@]6(C(=O)O[C@@H]6O[C@H](CO[C@@H]7O[C@H](CO)[C@@H](O[C@@H]8O[C@@H](C)[C@H](O)[C@@H](O)[C@H]8O)[C@H](O)[C@H]7O)[C@@H](O)[C@H](O)[C@H]6O)CC[C@]45C)[C@]3(C)CO)OC[C@H](O)[C@@H]2O)[C@H](O)[C@H](O)[C@H]1O [hederacoside C]
6. CC12CCC(O)CC1CCc1ccccc12 (stereo not drawn)

Result block:
1. −0.747
2. −0.565
3. 0.811
4. −0.007
5. −0.809
6. −0.250

###

System: cytochrome c
Format: cell-based, mouse
EXPERIMENTAL SETUP: composite Z-score vs mock-treated (DMSO) wells; Conc 20 μM
MEASUREMENT NAME: cyt c

The examples below pair each entry with its known result.
COC(=O)[C@@H]1OC(=O)C2OC23[C@@]1(C)CCC1[C@@]2(C)CCC(=O)C(C)(C)C2C[C@@H](OC(C)=O)[C@]13C (some centres unmarked) [dihydrogedunic acid, methyl ester]	−0.443
CC1(C)C(=O)C=C[C@]2(C)[C@H]3CC[C@@]4(C)[C@H](c5ccoc5)OC(=O)[C@H]5O[C@]54[C@]3(C)C(=O)C[C@@H]12 [deacetoxy-7-oxogedunin]	0.047
CC(=O)[C@H]1CC[C@H]2[C@@H]3CCC4C[C@H](O)CC[C@]4(C)[C@H]3C[C@H](O)[C@]12C (stereo partly drawn) [dihydroxy (3alpha,12alpha)pregnan-20-one]	−0.685

Provide cyt c values for the following items, in order.
1. CC(=O)O[C@@H]1CC(=O)[C@@]2(C)C(CC(=O)[C@]3(C)C2CC[C@@]2(C)[C@H](c4ccoc4)OC(=O)C4OC423)C1(C)C (some centres unmarked) [1,7-dideacetoxy-1,7-dioxokhivorin]
2. COc1ccc(-c2coc3c(OC)c(OC)cc(OC)c3c2=O)cc1 [isotectorigenin trimethyl ether]
3. COc1cccc(-c2cc(=O)c3cc(OC)ccc3o2)c1 [6,3′-dimethoxyflavone]
4. COc1cc2c(cc1OC)[C@@H]1C(=O)c3ccc(O)c(CC=C(C)C)c3O[C@@H]1CO2 [rotenonic acid, reference compound]
5. CC1(C)C=Cc2cc3ccc(=O)oc3cc2O1 [xanthyletin]

Result block:
[0.539, 0.640, 0.245, 0.365, "−0.029"]

Please give cyt c, item by item, for the list that follows.
1. Cc1cc(O)c2c(O)c3c(O)cccc3cc2c1 [chrysarobin]
2. CC(=O)O[C@H]1C[C@@H](OC(C)=O)C(C)(C)[C@@H]2C[C@@H](OC(C)=O)[C@]3(C)[C@H](CC[C@@]4(C)[C@H](c5ccoc5)OC(=O)[C@H]5O[C@@]534)[C@@]12C [khivorin]

Result block:
1. −0.074
2. 0.229

Provide each entry's cyt c from the list below.
1. Cc1cc(O)c(C=O)c2c1C(=O)Oc1c(C)c(O)c3c(c1O2)C(O)OC3=O (centres unmarked) [norstictic acid]
2. COc1cc2occc2c2oc(=O)ccc12 [isobergaptene]
3. CC1=CCc2c(cc3oc(C)cc(=O)c3c2O)OC1 [ptaeroxylin]
4. COc1cc(OC)c2c(c1Cl)O[C@@]1(C(=O)CC(=O)C[C@H]1C)C2=O [griseofulvic acid, reference compound]

Result block:
[0.471, 0.486, 0.599, 0.724]

###

Test system: mtOXPHOS transcripts
Type: cell-based, mouse
EXPERIMENTAL SETUP: Table 7; C2C12 myotubes, 48 h, composite Z-score
Rule: mito-OXPHOS Z under 1 gives Criterion not met, otherwise Criterion met.

CC[C@@]1(O)C[C@H](O[C@H]2C[C@H](N(C)C)[C@H](O)[C@H](C)O2)c2c(cc3c(c2O)C(=O)c2c(O)ccc(O)c2C3=O)[C@H]1C(=O)OC [Pyrromycin, reference compound]	Criterion not met
CC[C@@]1([C@@H]2O[C@@H]([C@H]3O[C@@](O)(CO)[C@H](C)C[C@@H]3C)C[C@@H]2C)CC[C@H]([C@]2(C)CC[C@]3(C[C@H](O)[C@@H](C)[C@@H]([C@@H](C)[C@@H](OC)[C@H](C)C(=O)O)O3)O2)O1 [monensin, reference compound]	Criterion not met
O=c1[nH]cc(F)c(=O)[nH]1 [Fluorouracil, reference compound]	Criterion met
CC(=O)O[C@@H]1c2c(ccc3ccc(=O)oc23)OC(C)(C)[C@@H]1OC(=O)CC(C)C [dihydrosamidin, reference compound]	Criterion met
O=C1C(Cl)=C(Cl)C(=O)C(Cl)=C1Cl [Chloranil, reference compound]	Criterion met
Nc1cc(N2CCCCC2)nc(N)[n+]1[O-] [Minoxidil, reference compound]	Criterion met

Turning now to a further record.
Query block: Confirm if mito-OXPHOS Z reported for the compound Cc1c(O)c(O)cc2c1CC=C1[C@@]2(C)CC[C@@]2(C)[C@@H]3C[C@](C)(C(=O)O)CC[C@]3(C)CC[C@]12C [Dihydrocelastrol, reference compound] is 1 or above.
Result block: Criterion not met

###

Test system: OXPHOS gene expression
Assay type: cell-based, mouse
EXPERIMENTAL SETUP: composite Z-score vs mock-treated (DMSO) wells; Conc 20 μM
Provide the recorded GE-HTS for the entries that follow.
Give bare numbers.

For orientation, consider the following solved cases.
CCOC(=O)c1oc2c(OC)c(O)cc(O)c2c(=O)c1-c1cc(OC)c(OC)c(OC)c1	−1.306
COc1ccc(-c2coc3c(OC)c(OC)cc(OC)c3c2=O)cc1 [isotectorigenin trimethyl ether]	0.437
C[C@@H]([C@H]1OC(C)(C)[C@@H](O)[C@H]1O)[C@@H]1CC[C@]2(C)C3=CC[C@H]4C(C)(C)C(=O)CC[C@]4(C)[C@H]3CC[C@@]12C [odoratone]	−0.994
COc1ccc([C@H]2Oc3c(I)c(OC)cc(OC)c3C[C@@H]2O)cc1OC [8-iodocatechin tetramethyl ether, reference compound]	−1.194
CC(C)=CCc1c(O)cc(C)oc1=O [2-isoprenyl-3-hydroxy-5-methyl-a-pyrone]	0.309

Hello, I would appreciate it if you could give GE-HTS for each entry below.
1. C=C1C2CC[C@@]3(C)[C@H](c4ccoc4)OC(=O)C[C@]13O[C@H]1CC(=O)C(C)(C)[C@H](C(O)C(=O)OC)[C@@]21C (some centres unmarked) [6-hydroxyangolensic acid methyl ester]
2. COc1ccc2c(c1OC)OC[C@@H](c1ccc(OC)c(OC)c1OC)C2 [duartin, dimethyl ether]
3. Cc1cc(=O)c2c(O)c(C)c(O)cc2o1 [eugenitol]
4. CCC(C)C(=O)O[C@@H]1C[C@@]2(C)[C@H](c3ccoc3)OC(=O)CC23OC2(C)OC34[C@H](OC(=O)C(C)C)[C@@]3(O)[C@@H](OC(=O)C5(C)OC5C)[C@@]5(C)C[C@]3(O)[C@@](C)([C@H]5CC(=O)OC)C14O2 (some centres unmarked) [entandrophragmin]
5. C=C1CCC2C(CC2(C)C)C(=C)CCC1=NO (centres unmarked) [5-hydroxyiminoisocaryophyllene]

Result block:
1. −1.426
2. −1.156
3. 0.471
4. 0.467
5. −0.023

Batch: GE-HTS for all items listed.
1. COC(=O)c1cccc2cc(OC)c(OC)c(OC)c2c1=O
2. COc1cc2c(cc1OC)-c1c(oc3c4c(ccc3c1=O)OC(C(C)C)C4)CO2 (centres unmarked) [dehydrodihydrorotenone, reference compound]
3. COc1c2c(cc3c1OCO3)CC[N+](C)=C2 [cotarnine]
4. Cc1cc(O)cc(O)c1C(=O)O [orsellinic acid]
5. C=CC(C1=CC(=O)C(OC)=CC1=O)c1ccc(O)cc1 (centres unmarked) [4-methoxy-4′-hydroxy-dalbergione]
6. COc1cc(O)c2c(=O)cc(C)oc2c1CC=C(C)C [heteropeucenin, methyl ether]

Result block:
1: 0.231; 2: −0.001; 3: 0.049; 4: −0.348; 5: −1.401; 6: 0.299

Query block: Kindly indicate its recorded GE-HTS. Item: C=C1C2=CC(=O)O[C@@H](c3ccoc3)[C@]2(C)CC[C@@H]1[C@@]1(C)C=CC(=O)C(C)(C)[C@@H]1CC(=O)OC [deoxyandirobin]
Result block: 1.352
